# Test system: MS2 coat protein
# RUN DESCRIPTION: apparent KD of MS2 coat protein; higher = weaker reporter binding
# MEASUREMENT SETUP: Eterna round: R107; input ligand: theophylline 2 mM
Answer F if apparent KD of MS2 coat protein is under 0.06 µM, and T if it is 0.06 µM or more.

CHAIN SEQUENCE	CATEGORY LABEL
CGCCCAGUUACGGCCGCCACUUCGAUGGCAAAUGUCGAGCCUCCACAUGAGGAUCACCCAUGUCGAAGGACCGGGUACUGCUUGC [theeternabot_sameState_MS2_Trp_B_17]	F
GGACUAACCAGAAGGAGCGACACAAGCAGAAACUGCAAUCCUCCGCACGAGGAUCACCCGUGUCAGGUAGGUCGCUGGUUAGUCG [ArgBX 28]	T

Q: Given GGCCAUGGAAACAUGGCGGCGGCGUAUGCGCGAGGACCGGUACGGCCGCCACUCGGGCGACAUGAGGAUCACCCAUGUUCCUCAU [ETA NP+V+V2 #25] , state whether its apparent KD of MS2 coat protein is at least 0.06 µM.
Ans: T

Q: Given CAAAAUAUAACGGCCGCCACUUACUCAUGAGGUAACAACAUGAGGAUCACCCAUGUUUGAGGAUCAAGGACCGGGUUAUAUUUUG [AstrosSSTry#21] , state whether its apparent KD of MS2 coat protein is at least 0.06 µM.
Ans: F

Q: Given AUAACAUGAGGAUCACCCAUGUAAGCUGAAGGAGCGGACGAAAGUCCAGGUAGGUCGCAGCACUCCUUCAACAUGGGAGAGGGAG [(M1)-(M2)-(Arg1)-(Arg2)-(A)'-(M)'-(A)''_Design1] , state whether its apparent KD of MS2 coat protein is at least 0.06 µM.
Ans: T

Q: Given UAAACUACACAUGAGGAUCACCCAUGUGGCCGAGGACCGGUACGGCCGCCACUCGUGUGUUAAUAAAAGAACUGCAAGGUUCUGU [Laorat] , state whether its apparent KD of MS2 coat protein is at least 0.06 µM.
Ans: T

Q: Given AAGGACAUGAGGAUCACCCAUGUAGAGGAGCGAGGACCGGUACGGCCGCCACUCGGUGACAUUCGAUAAUGCCGAAUAAGACAUC [theeternabot_sameState_MS2_Trp_A_47] , state whether its apparent KD of MS2 coat protein is at least 0.06 µM.
Ans: F

Q: Given GGGCCUAUCUGAAGGAGCGACAUGAGGAUCACCCAUGUCUCCCGUUAUGGGAGUUCUUUAGGUCAGGUAGGUCGCAGGUAGGGCC [#1 Exclusion - Arginine B Attempt #5 (Inspired by Omei)] , state whether its apparent KD of MS2 coat protein is at least 0.06 µM.
Ans: F

Q: Given CGAGUAGGUUCAAUCGAAUAACGGUUUUCGCGAGGACCGGUACGGCCGCCACUCGUGUGAUAUCACACAUGAGGAUCACCCAUGU [3'end-1] , state whether its apparent KD of MS2 coat protein is at least 0.06 µM.
Ans: T

Q: Given `AGAAAGAAACAAAACUCAAGGAGAACCGAAGGAGCGGCGAAAGAGCCAGGUAGGUCGCGGUCCUCAACAUGAGGAUCACCCAUGU` , state whether its apparent KD of MS2 coat protein is at least 0.06 µM.
Ans: T

Q: Given UUGGGUUUGUGAAGGAGCGGGAAAGUUAUAUAGUUAAUCCUAACAUGAGGAUCACCCAUGUCCCAGGUAGGUCGCGCGGGUUUGG [12.P] , state whether its apparent KD of MS2 coat protein is at least 0.06 µM.
Ans: F

Q: Given CCGCACAUGAGGAUCACCCAUGUCAGGGAUACCAGCCCAGACAUGGGCCCUUGGCAGCUUUGUAGCUGACGAAAGUCAGCAGCGG [Omei Theo A SS A v2] , state whether its apparent KD of MS2 coat protein is at least 0.06 µM.
Ans: T

Q: Given `GGUUGAUGACAUGAGGAUCACCCAUGUAGGCGAGGACCGGUACGGCCGCCACUCGACAUGAGGAUCACCCAUGUCGGCGUCCGUG` , state whether its apparent KD of MS2 coat protein is at least 0.06 µM.
Ans: F
